Assay: qHTS screen for small molecules that inhibit ELG1-dependent DNA repair in human embryonic kidney (HEK293T) cells expressing luciferase-tagged ELG1; further: nearly all actives have a fitted effect of over 55% in size
Details: HEK293T ELG1-luciferase reporter, luminescence, 16 h, DNA damage induced by 5-fluorouridine; series mostly up to 46.1 µM
Screen size: about 330,000 compounds; about 7,700 (2.3%) were called active. Inconclusive results (about 26%) are left out. The call rests on the fitted dose curve; in most records, active means well fitted inhibition curve with a large enough effect; inconclusive means small, poorly fitted or top-dose-only effect, or effect the other way; inactive means flat fitted curve, though single readings scatter. The entries come from a sample that favours actives as a whole.
Permitted responses: active, inactive

Reference set (5 entries):
compound: O=C(CSc1ccccc1)Nc1cccc(S(=O)(=O)N2CCCCC2)c1
answerLabel: inactive
//
compound: CN(C)S(=O)(=O)c1ccc(N2CCCC2)c(C(=O)Nc2ccc(Br)cc2F)c1
answerLabel: inactive
//
compound: CC(NCC(=O)Nc1cc(Cl)cc(Cl)c1)c1ccccc1 (configuration not stated)
answerLabel: inactive
//
compound: Brc1ccc2ncnc(NCc3cccnc3)c2c1
answerLabel: active
//
compound: O=C(C1CCC(=O)N(C2CC2)C1)N1CCN(c2ccc(Cl)cc2)CC1 (configuration not stated)
answerLabel: inactive

Ask | Hi, do you know how "COc1ccc(-c2c(C)cc3oc(=O)cc(-c4ccccc4)c3c2C)cc1OC" came out in this test?
Reply | inactive

Ask | So what was the verdict on "O=C(OCC(=O)N1CCCCCC1)c1ccc(Cl)nc1" in this test?
Reply | inactive

Ask | Could you check what this test reported for "CN(CC(=O)Nc1ccc(F)cc1)C(=O)c1ccc(-c2ccc(Cl)cc2)o1" ?
Reply | inactive

Ask | Could you kindly confirm the outcome this assay logged for "Cc1cc(NCc2cccnc2)no1" ?
Reply | inactive

Ask | Name the outcome recorded for "Cc1ccc(C)c(OCCC(=O)Nc2cccc(S(=O)(=O)N3CCCC3)c2)c1" in the assay.
Reply | inactive

Ask | Please indicate how the test categorized "Cc1ccccc1Cn1c(=O)[nH]c2ccccc21" .
Reply | inactive

Ask | Give the logged outcome of this assay for the following compound: Cc1ccc(S(=O)(=O)N(C)CC(=O)NCC(c2ccc(F)cc2)N2CCOCC2)cc1 (configuration not stated)
Reply | inactive

Ask | Lab log entry: "NC(=O)c1cc(-c2cccnc2)nc2ccc(Br)cc12" — outcome as called in the assay?
Reply | inactive

Ask | # outcome recorded in this test, key = "COc1cc(OC)cc(-c2sc3ccc(OC)cc3c2-c2ccc3cc[nH]c3c2)c1"
Reply | inactive

* * *

Test: qHTS screen for small molecules that inhibit ELG1-dependent DNA repair in human embryonic kidney (HEK293T) cells expressing luciferase-tagged ELG1; further: nearly all actives have a fitted effect of over 55% in size
Details: HEK293T ELG1-luciferase reporter, luminescence, 16 h, DNA damage induced by 5-fluorouridine; series mostly up to 46.1 µM
Source text: NIH Molecular Libraries Probe Production Network [MLPCN] NIH Chemical Genomics Center [NCGC] MLPCN Grant: 1 R03 MH092164-01 Assay Provider: Kyungjae Myung, NHGRI, NIH Keywords: MLPCN, qHTS, NCGC, genotoxicity, cancer Assay Overview: Cancer cells divide rapidly compared to normal cells in the body. During cell division, cancer cells need to duplicate their genome by DNA replication. […] With this in mind, we developed a quantitative high-throughput ELG1-luciferase reporter gene assay. […]
Among all 330,000 compounds or so, about 7,700 (2.3%) were called active. Another 26% or so got no clear call; they are omitted. Calls come from the whole dose curve; as a rule, active = well fitted inhibition curve with a large enough effect; inconclusive = small, poorly fitted or top-dose-only effect, or effect the other way; inactive = flat fitted curve, though single readings scatter. This is one part of a sample in which actives are shown more often than they occur.
Please answer using one outcome listed in class 1 for active, class 0 for inactive

Sample answers from the record:
molecule: COCCn1c(SCC(=O)Nc2ccc3c(c2)CCC3)nc2ccccc2c1=O
answerLabel: class 0
//
molecule: Cc1[nH]c2ccccc2c1C(=O)COC(=O)C(C)C
answerLabel: class 0
//
molecule: CCN([C@H](CO)C(C)C)S(=O)(=O)c1ccccc1Br
answerLabel: class 0
//
molecule: Cc1ccc(CNC(=O)Cn2cnc3c(NCc4ccccc4)ncnc32)o1
answerLabel: class 0
//
molecule: COc1ccc(Nc2ncnc3sc(-c4ccccc4)cc23)c(OC)c1
answerLabel: class 0
//
molecule: Cn1cncc1C#Cc1c(-c2ccsc2)sc2ccccc12
answerLabel: class 0
//
molecule: O=C(CCN1C(=O)[C@@H]2Cc3ccccc3CN2C1=O)NCCc1ccccc1
answerLabel: class 0
//
molecule: c1ccc(-c2cc3c(NCC4COc5ccccc5O4)ncnc3s2)cc1 (stereo unspecified)
answerLabel: class 1
//
molecule: CCn1c(SCC(=O)Nc2ccc(C)cc2)nc2nc3c(cc2c1=O)CCCC3
answerLabel: class 1
//
molecule: CCOC(=O)c1c(C)[nH]c2c1-c1ccccc1C(=O)C2=O
answerLabel: class 1

Now turn to the next molecule.
Ask | Could you kindly confirm the outcome this assay logged for "CCOc1ccc(-n2c(SCC(=O)Nc3cc(C(=O)O)ccc3Cl)nc3ccccc3c2=O)cc1" ?
Reply | class 0

Cited source for all entries: PubChem BioAssay AID504467
